Read-out: Insulin Like Growth Factor 1 (IGF1), IGF1 (gene 3479)
Assay: LTEA_HepaRG_IGF1: Life Technologies and Expression Analysis (LTEA) Assay for Insulin Like Growth Factor 1 (IGF1) using HepaRG (AID 2283506)
Settings: mRNA level, 48 h; actives raise or lower the signal
The source made the active and inactive calls. The calls were made as follows: active = hit-call score of the fitted dose curve at least 0.9, where 1 is the maximum; inactive = score below 0.9.
Result category, one only: active, inactive

CCCCCCCCOC(=O)CCCCCCCCC(=O)OCCCCCCCC; inactive
c1ccc2c(c1)ccc1ccccc12; inactive
CCC(C)(C)C1CCC(O)CC1 (centres undefined); inactive
CCCCCCCCC(=O)O; inactive

Each compound tested received a call. Report the one for CCN(CC)CCNc1ccc(CNC=O)c2sc3ccc(OC)cc3c(=O)c12 .
active

Each compound tested received a call. Report the one for O=C(OCCOCCOC(=O)c1ccccc1)c1ccccc1 .
inactive

Each compound tested received a call. Report the one for Cc1cc(CCN2CCN(c3nsc4ccccc34)CC2)cc2c1NC(=O)CC2(C)C .
active

Each compound tested received a call. Report the one for CC(C)(C)c1cc(C(C)(C)C)c(O)c(C(C)(C)C)c1 .
inactive

Each compound tested received a call. Report the one for CC(C)(C)c1cccc(C(C)(C)C)c1O .
inactive

Each compound tested received a call. Report the one for CN1CCC[C@H]1c1cccnc1 .
inactive

Each compound tested received a call. Report the one for CN(C)C=O .
inactive

Each compound tested received a call. Report the one for CCC(=C(c1ccc(O)cc1)c1ccc(OCCN(C)C)cc1)c1ccccc1 .
active

Each compound tested received a call. Report the one for O=[N+]([O-])c1ccc(O)cc1 .
inactive
